system: TERT-RPE1; experiment: Here: values are normalized to the negative (DMSO; defined as 0% autophagy induction) and positive (250nM Torin1; mTOR inhibitor; defined as maximal inducer of autophagy = 100%) control compounds and represented as % of autophagy induction. […] The impact of autophagy induction on cells is complex and depends on the affected target. As such, the magnitude of a phenotype may not be equally mirrored in the %-value of autophagy induction and vice versa. The dynamics of the induction may indicate the mode of activation: e.g. activation via phosphorylation or a signaling cascade may occur fast, while activation via transcription factors may take considerably longer. […] Of note, treatment concentrations may be sub-optimal for specific compounds, leading to false negative annotations.; type: functional, Homo sapiens; settings: Compound Concentration 2 uM, Timepoint 24 hours, Culturing Media DMEM/F12 (1:1), 1 % Penicillin/Streptomycin, 10% Fetal bovin serum Add-On: No, Screening Media Control DMEM/F12 (1:1), Screening Media Samples DMEM/F12 (1:1)
parameter: autophagy induction

COc1ccc(C2(O)OC(=O)C(c3ccc4c(c3)OCO4)=C2Cc2cc(OC)c(OC)c(OC)c2)cc1 (centres undefined) = -7.638%

Below are 6 compounds. Give each one its autophagy induction.
1. CC(C)NCC(O)c1ccc(N)c(C#N)c1 (centres undefined)
2. Cc1cc(C)cc(C(=O)N(C)[C@H](Cc2ccc(-c3ccccc3)cc2)C(=O)N[C@@H](Cc2c[nH]c3ccccc23)C(=O)O)c1
3. Cc1nnn(-c2ccc(-c3ccc(C4(C(=O)O)CC4)cc3)cc2)c1NC(=O)O[C@H](C)c1ccccc1
4. CC(C)NC(=O)c1ccc(C#Cc2ccncc2)cn1
5. CN(C)S(=O)(=O)c1ccc(NC(=S)N2CCC(C(O)(c3ccccc3)c3ccccc3)CC2)cc1
6. COc1ccccc1CN[C@H]1C2CCN(CC2)[C@H]1C(c1ccccc1)c1ccccc1

["5.1156%", "-8.155%", "-9.8231%", "-5.1239%", "-8.186%", "-10.9647%"]

Need autophagy induction for each of these compounds.
1. O=C1N/C(=N/c2ccccc2F)S/C1=C\c1ccc(C(=O)O)cc1
2. COC1CCN(c2cccc(-c3cc(NC(C)=O)nc(-n4nc(C)cc4C)n3)n2)CC1

["-7.325%", "0.9672%"]
